target: NACHT, LRR and PYD domains-containing protein 3 (Mus musculus) (UniProt Q8R4B8); test: Inhibition of NLRP3 inflammasome activation in LPS-stimulated mouse J774.A1 cells assessed as reduction in pyroptosis at 10 uM pretreated for 4 hrs with LPS and for 30 mins with compound prior to ATP addition and measured after 30 mins by PI/Hoechst33342 staining based analysis; assay type: cell-based; conditions: time 60.0 min
Sequence (Q8R4B8 whole entry, the tested form may be a part): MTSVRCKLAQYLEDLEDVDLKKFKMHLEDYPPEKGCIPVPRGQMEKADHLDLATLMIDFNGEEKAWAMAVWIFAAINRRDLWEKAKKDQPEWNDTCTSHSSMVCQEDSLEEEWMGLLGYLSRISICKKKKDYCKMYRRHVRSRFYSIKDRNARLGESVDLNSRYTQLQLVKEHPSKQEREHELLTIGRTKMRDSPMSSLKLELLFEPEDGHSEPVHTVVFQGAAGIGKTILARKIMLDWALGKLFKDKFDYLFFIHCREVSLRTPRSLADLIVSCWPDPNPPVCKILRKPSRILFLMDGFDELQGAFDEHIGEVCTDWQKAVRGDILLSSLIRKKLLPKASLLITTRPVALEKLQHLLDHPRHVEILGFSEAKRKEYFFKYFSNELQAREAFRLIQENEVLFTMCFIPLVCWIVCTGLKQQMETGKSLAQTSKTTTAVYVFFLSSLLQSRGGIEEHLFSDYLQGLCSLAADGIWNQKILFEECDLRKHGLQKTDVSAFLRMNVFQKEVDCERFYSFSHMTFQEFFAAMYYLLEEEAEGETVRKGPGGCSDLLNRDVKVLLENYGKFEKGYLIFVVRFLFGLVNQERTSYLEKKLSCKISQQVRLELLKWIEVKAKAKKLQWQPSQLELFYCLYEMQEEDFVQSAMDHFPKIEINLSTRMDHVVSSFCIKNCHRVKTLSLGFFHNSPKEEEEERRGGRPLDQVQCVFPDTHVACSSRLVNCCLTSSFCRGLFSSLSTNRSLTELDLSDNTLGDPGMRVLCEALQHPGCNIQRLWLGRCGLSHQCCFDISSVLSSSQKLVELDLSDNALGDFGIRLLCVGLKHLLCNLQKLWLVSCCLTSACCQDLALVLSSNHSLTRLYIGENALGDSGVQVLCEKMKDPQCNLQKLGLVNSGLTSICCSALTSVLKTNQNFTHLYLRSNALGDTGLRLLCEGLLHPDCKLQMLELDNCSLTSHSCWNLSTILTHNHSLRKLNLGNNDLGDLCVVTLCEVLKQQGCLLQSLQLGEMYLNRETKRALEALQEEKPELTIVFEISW
Please enter 1 (yes) where inhibition is greater than or equal to 50%, and 0 (no) where it is lower.

compound=C=C1C(=O)[C@]23[C@H](O)[C@H]1CC[C@H]2[C@@]12CO[C@]3(O)[C@@H](O)[C@@H]1C(C)(C)CC[C@@H]2O cat="1 (yes)"
compound=COc1cc(/C=C/c2ccc(NC(=O)c3ccc(Br)cc3)cc2)c(/C=C/[N+](=O)[O-])c(OC)c1 cat="0 (no)"
compound=COc1cc(/C=C/c2ccc(NC(=O)c3ccccc3Cl)cc2)c(/C=C/[N+](=O)[O-])c(OC)c1 cat="0 (no)"
compound=COc1cc(/C=C/c2ccc(NC(=O)/C=C/c3ccccc3)cc2)c(/C=C/[N+](=O)[O-])c(OC)c1 cat="0 (no)"
compound=COc1cc(/C=C/c2ccc(NC(=O)COc3ccccc3)cc2)c(/C=C/[N+](=O)[O-])c(OC)c1 cat="0 (no)"
compound=COc1cc(/C=C/c2ccc(NC(=O)c3ccccn3)cc2)c(/C=C/[N+](=O)[O-])c(OC)c1 cat="1 (yes)"
compound=COc1cc(/C=C/c2ccc(NC(=O)c3ccc(C)cc3)cc2)c(/C=C/[N+](=O)[O-])c(OC)c1 cat="0 (no)"
compound=COc1cc(/C=C/c2ccc(NC(=O)c3cccc(F)c3)cc2)c(/C=C/[N+](=O)[O-])c(OC)c1 cat="0 (no)"
compound=COc1cccc(C(=O)Nc2ccc(/C=C/c3cc(OC)cc(OC)c3/C=C/[N+](=O)[O-])cc2)c1 cat="0 (no)"
compound=COc1cc(/C=C/c2ccc(NC(=O)c3cccc4ccccc34)cc2)c(/C=C/[N+](=O)[O-])c(OC)c1 cat="0 (no)"
compound=COc1cc(/C=C/c2ccc(NC(=O)c3ccccc3F)cc2)c(/C=C/[N+](=O)[O-])c(OC)c1 cat="0 (no)"
compound=COc1ccc(C(=O)Nc2ccc(/C=C/c3cc(OC)cc(OC)c3/C=C/[N+](=O)[O-])cc2)cc1 cat="0 (no)"
compound=O=[N+]([O-])/C=C/c1ccc2c(c1)OCO2 cat="1 (yes)"
compound=COc1cc(/C=C/c2ccc(NC(=O)c3ccco3)cc2)c(/C=C/[N+](=O)[O-])c(OC)c1 cat="1 (yes)"
compound=COc1cc(/C=C/c2ccc(NC(=O)c3cccc(C)c3)cc2)c(/C=C/[N+](=O)[O-])c(OC)c1 cat="0 (no)"
compound=COc1cc(/C=C/c2ccc(NC(=O)c3ccc4ccccc4c3)cc2)c(/C=C/[N+](=O)[O-])c(OC)c1 cat="1 (yes)"
compound=CCOc1ccc(C(=O)Nc2ccc(/C=C/c3cc(OC)cc(OC)c3/C=C/[N+](=O)[O-])cc2)cc1 cat="0 (no)"
compound=COc1cc(/C=C/c2ccc(NC(=O)c3ccc(F)cc3)cc2)c(/C=C/[N+](=O)[O-])c(OC)c1 cat="0 (no)"
compound=COc1cc(/C=C/c2ccc(NC(=O)C(C)(C)C)cc2)c(/C=C/[N+](=O)[O-])c(OC)c1 cat="1 (yes)"
compound=COc1cc(/C=C/c2ccc(NC(=O)c3ccccc3C)cc2)c(/C=C/[N+](=O)[O-])c(OC)c1 cat="0 (no)"
compound=COc1cc(/C=C/c2ccc(NC(=O)c3cccs3)cc2)c(/C=C/[N+](=O)[O-])c(OC)c1 cat="1 (yes)"
compound=COc1cc(/C=C/c2ccc(NC(=O)c3cccc(Cl)c3)cc2)c(/C=C/[N+](=O)[O-])c(OC)c1 cat="0 (no)"
compound="COc1cc(/C=C/c2ccc(NC(=O)C3CCCO3)cc2)c(/C=C/[N+](=O)[O-])c(OC)c1 (stereo not given)" cat="1 (yes)"
compound=COc1cc(/C=C/c2ccc(NC(=O)c3ccoc3)cc2)c(/C=C/[N+](=O)[O-])c(OC)c1 cat="1 (yes)"

Where these numbers come from: ChEMBL document CHEMBL5154869
